system: MS2 coat protein; test: apparent KD of MS2 coat protein; designed switch direction (-1 OFF switch, 1 ON switch): 1; higher = weaker reporter binding; conditions: Eterna round: R95; input ligand: FMN 200 uM
PROPERTY_MEASURED: apparent KD of MS2 coat protein (nM)
Express your answer in nM, writing the number without its unit.

Example sequences with recorded apparent KD of MS2 coat protein:
- AGGGAGGAAGCUGAGGAUAUCGUAAGGAGGACAUGAGGAUCACCCAUGUGUAUAGAAUUGGAGGACGAGAAGGCAGAGGAGUGGG [JR_SS2_Sub052] (puzzle: Same State 2): 25.5
- UCUUGGUUUUUGCUCGUUUUUUGUGUUGAACAUGAGGAUCACCCAUGUAUUGUACAGUCCAGUUUGAUAAUGGUCCG [JMF 56] (puzzle: Sensor for hsa-mir-208a): 39
- GAUAGACAUGAGGAUCACCCAUGUGACAAAACCACAGGAUAUCAUGCAGGCGUACCUGCAUGAGAAGGGUGAGACU [Ceriinaqu] (puzzle: Same State 1): 29.7
- GGUCCAGCCUGAGCUGGACAAAAGCAUGUACAUGAGGAUCACCCAUGUUCAUGUACAAGCUUUUUGCUCGUCUUAAC [salish99_208a_r3_038] (puzzle: Sensor for hsa-mir-208a): 530
- GGAGCCGGUACUGAGGAUAUUCAUAUUAAAACAUGAGGAUCACCCAUGUAGGCCAGAAGGCCUUGGGAGAAGGCGGAUCGGCUCC [Biseusra - 2] (puzzle: Same State 2): 22

Request: // query apparent KD of MS2 coat protein value for entry GCUGCACAUGAGGAUCACCCAUGUCUUCGGAGUCGAGGAUAUGGUCACUGUAAACAGUGGCCAGAAGGCGAGUAGC [SS1 - Son of Teenbexe v6] (puzzle: Same State 1)
Response: 30.8

Request: UAGUUACUAUCUCAGGAUAUCAUGUCAAAGACAUGAGGAUCACCCAUGUACCAGGAAACUGGUUAUGAGAAGGGAGAUAGUAACA [Mat - Same State 2 - Mod - D56] (puzzle: Same State 2) , same question.
Response: 78.7

* * *

system: K4 kissing-loop RNA reporter; assay: apparent KD of K4 kissing-loop reporter; higher = weaker reporter binding; settings: Eterna round: R107; input ligand: none;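 also: bound reporter read as fluorescence of individual clusters on recovered sequencing chips by microscopy, with normalized cluster intensities fitted with a binding model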
Rule: apparent KD of K4 kissing-loop reporter of 300 nM or more gives 1; anything lower gives -1.

* GUGCGCGGUGCGGCCGCCACUCGGAUGCGAGUGAUGUUCGCGGGACGGACGCAAGUCCGUCAUUCGAGGACCGGGCAUGGCUGUA [#2 Same State - Tryptophan B Attempt #5 (HarryS)] | -1
* UAUAGAGUGACGGCCGCCACUAUUGUGAUUUAAUUGUUAGAGUGAUGUUUUGUUGUUUGAUUUUGUAGGACCGGGUUAUAUGUUA [ecewzmullin] | 1
* UGAUACCAGACGGCCGCCACUACACCAGUCAAAGACUGGAUGUGAAAUUCGACCAGUGAUGUUGGUAGGACCGGGUCUGGUAUCU [TrypBX 8 #SwitchBubble #StaticStem] | 1
* GUAGAUAGGCUACAUCUCUAGUCUAAAGACUAGGAUAUCAGGAAACUGAGAAGGAGUCUCAUUGGAGUGAUGUUCCAAGAAUAAU [KL-SSFMN-A16] | -1
* UGAUAGGACAGAAGGAGCGGUAGUGAUGUUACCAAAAGGAUAAGGUGUCAAAAGACACCCUACCAGGUAGGUCGCUGUCCUAUCU | -1

Request: Threshold query (apparent KD of K4 kissing-loop reporter >= 300 nM) on UUAGGAGAGGGAAGGAGCGUGAAAGAGAAAGAAUAUAGUGAUGUUAUAUAGAAGAAAGAAUCACAGGUAGGUCGCCCGGAGGAGG [SSArgB.C]
Response: 1

Request: Same again, this time with GGAGAGGUCUUGUUUGGAUGUGUUUAAUGGCGAGGACCGGUACGGCCGCCACUCGGGUGAUGUUAGUGAUGUUGAUGUAGUGAUG [wzwmullin]
Response: -1

Request: Another sequence to look at: GUUGUAUACUGAAGGAGCGAGUAGUGGAAACAUAAACUCAUUGCGAGUGAUGUUCGCAGUACUCAGGUAGGUCGCAGUAAUCGUA [Exclusion Arginine B Gf 10]
Response: 1

Request: // query: AUUUUUUUAUCAGGAUAUUAGUGUUGGUUUGUUUUGUUAGUGAUGUUGAUAUUUGUUUUAUGUAUUUAAGAAGGGAUUGAGAUGU [huupullin]
Response: -1

Request: Quick one: UUUGUAGUGGGAGGAUAUCCUAAUAUGGGUGAUGUUAGCGAUGUUGAAGGUGUAGUGAUGUUAUGCGGAGAAGGCCCACUGUAGA [BDazzled - #20 - Exc. FMN B]
Response: -1

Request: What do we get for UGUCAUUGGUCUGAUACCAGCUUGAUCGGAAACGAUCUGCUGGAGUGAUGUUCCAAGUAAAGCCCUUGGCAGCAGACCGAUGACU [TheoBS 8 #SwitchBubble #StaticStem] ?
Response: -1

Request: Try UGUCAUUGGUCGGCCGCCACUUUAUAUGGAGUGAUGUUUUGUAAAUUGUGUUGAAAGGUGUGGUAAAGGACCGGGACCGAUGACU [FiskerMod 26 - Jieux - Same State - Tryptophan B] next.
Response: 1

Request: Okay, and ACACUUUACGUAGGAUAUGCGACGAGUGAUGUUCGUCAGGCGGCUUGAGCUUAAACAGGCCGUCUAGCAGAAGGACGGGCAGUGU [Diorsodi] ?
Response: -1

Request: Here is the next sequence: UCCUUUGUUGCCAGUGAUGUUGGACAGGAAGGAGCGGGCAUAAGCCCAGGUAGGUCGCCUGUCAACUUUCUUAUAGCCCGAAGGU [KL-XArg-A19]
Response: 1

Request: Next record, please: AGUGAUAUAUGAGGAUAUGGGAUUGUUAAUGAGUUAGUUUUAGUGUUGUUUGGUUAGUGAUGUUAUUUAGAAGGCGUGAGUGAUG [kuktrmullin]
Response: -1

Request: Another sequence to look at: UAACUCUUGCAGUGAUGUUGCAAGUAAGCUCAGGAUAUCAGGAAACUGAGAAGGGAGCAUCCUGAGCAACUGCAAGAGCUCAGAA [[K1]-[K2]-[F1]-[F2]-[F]'-[K]'-[F]''_Design1]
Response: -1

Request: What do you get for GGGCGCGGCGCGGCCGCCACUGCGCCUGGGUGCUCGCCGAGUGAUGUUCGUCGGCGGUUGGGUGGCAGGACCGGGUGCCGGCCCG [BDazzled - #17 SS Tryptophan B] ?
Response: 1

Request: Again, but for UAUGCUUGUGCUGAUACCAGUGUUAGUGAUGUUAGGACUGUCAGUAGGAUGCGUGCAUUUCACCCUUGGCAGCAGUAUCGCAGCA [theeternabot_exclusion_KL_Theo_B_48]
Response: 1
